Would you mind telling me the reported polymerase ribozyme fitness (log ratio) of each entry?
B1: TPR t1 (parent)
chain: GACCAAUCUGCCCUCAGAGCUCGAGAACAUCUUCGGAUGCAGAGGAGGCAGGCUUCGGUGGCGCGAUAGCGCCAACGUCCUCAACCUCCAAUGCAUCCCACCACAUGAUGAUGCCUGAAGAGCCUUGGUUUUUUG

variants of: B1; assay: polymerase ribozyme fitness, log enrichment relative to wild type (log ratio); higher = more active; in vitro selection for triplet polymerase activity
Numbers only.

Prompt: Fill blank: measured polymerase ribozyme fitness (log ratio) of the variant GACCAAUCAGCCCUCAGAGCUCGAGAACAUCUUCGGAUGCAGAGGAGGCAGGCUUCGGUGGCGCGAUAGCGCCAACGUCCUCAACAUCCAAUGCAUCUCACCACAUGAUGAUGCCUGAAGAGCCUUGGUUUUUUG is ____.
Completion: -0.22

Prompt: Quick one: polymerase ribozyme fitness (log ratio) for GACCAAUCUGCCCUCAGAGCUCGAGAACAUCUUCGGGUGCAGAGGAGGCUGGCUUCGGUGGCGCGAUAGCGCCAACGUCCUCAACCUCCAAUGUAUCCCACCAUAUGAUGAUGCCUCAAGAGCCUUGGUUUUUUG ?
Completion: -5.89

Prompt: # lookup: polymerase ribozyme fitness (log ratio) of GACCAAUCUGCCCUCAGAGCUCGAGAACAUCGUCGGAUGCAGAGGAGGCAGGCUUCGGUGGCGCGAUAGCGCCAACGUCCUCAACCUCCAAUGCAUCCCACCACAUGAUGAUGCAUGAAGAGCCUUGGUUUUUUG
Completion: -5.41

Prompt: For the variant GACCAAUCUGCCCUCAGAACUCGAGAACAUCUUCGGAUGCAGAGGAGGCAGGCUUCGGUGACGCGAUAGCGCCAACGUCCUCAACCUCCAAUGCAUCCCACCACAUGAUGAUGCCUGAAGAGCCUUGGUUUCUUG , what polymerase ribozyme fitness (log ratio) is on record?
Completion: -2.94

Prompt: # input variant: GACCAAUCUGCCUUCAGGGCUCGAGAACAUCUUCGAAUGCAGAGGAGUCAGGCUUCGGUGGCGCGAUAGCGUCAACGUCCUCAACCUCCAAUGCAUCCCACCACAUGAUGAUGCCUGUAGAGCCUUGGUUUUUUG ; wanted: its polymerase ribozyme fitness (log ratio)
Completion: -6.03

Go through the items and report each one's polymerase ribozyme fitness (log ratio).
1. GACCAAUCUGCCCUCAGAGCUCGAGUACAUCUUCGGAUGCAGAGGAGGCAGGCUUCGGUGGCGCGAUAGCGCCAGCGUCCUCAACCUCCAAUGCGUCCCACCACAUGAUGAUGCCUGAAGAGCCUUGGUUUUUUG
2. GACCAAUCUGCCCUCAGAGCUCGAGAACAUCUUCGGAUGCAGAGGAGGCAGGCUUCGGCGGCGCGAUAGCGCCAACGUCCUCAACCUCCAAUGCAUCCCACCACAUGAUGAUGCCUGCAGAGCCUUGGUUUUUUG
3. GUCCAAUCUGCCCUCAGAGCUCGAGAACAUCUUCGGAUGCAGAGGAGGCGGGCUUCGGUGGCGCGAUAGCGCUAACGACCUCAACCUCCAAUGCAUCCCACCACAUGAUGAUGCCUGAAGAGCCUUGGUUUUUUG
4. GACCAAUCUGCCCUCAGAGCUCGAGAACAUCUUCGGCUGCAGAGGAGGCAGGCUUCGGUAGCGCGAUAGCGCCAAGGUCCUCAACCUCCAAUGCAUCCCACCACAUGAUGAUGCCUGAAGAGCCUUGGUUUUUUG
5. GACCAAUCUGCCCUCAGCGCUCGAGAACAUCUUCGGAUGCAGAGGAGGCAGGCUUCGGUGGCGCGAUAGCGUUAACGUCCUCAACCUCCAAUGCAUCCCACCACAAGAUGAUGCCUGAAGAGCUUUGGUUUUUUG
6. GACCAAUCUGCCCUCAGAGUUCGAGAACAUCUUCGGAUGCAGCGGAGGCAGGCUUCGGUGGCGCGAUAGCGCCAACGUCCUUAACCUCCAAUGCAUCUCACCACAUGAUGAUGCCUGAAGAGCCUUGGUUUUUUG
7. GACCAAUCUGCCCUCAGAACUCGAGAACAUCUUCGGAUGCAGAGGAGGCAGGCUUCGGUGACGCGAUAGCGCCAACGUCCUCAACCUCCAAUGCAUCCCACCAAAUAAUGAUGCCUGAAGGGCCUUGGUUUUUUG
8. GACCAAUGUGCCCUCAGAGCUCGAGAACAUCUUCGGAUGCAGAGGAGGCAGGCUUCGGUGGCGCGAUAGCGCCCACGUCCUCAACCUCCAAUGCAUCCCACCACAUGAUGAUGCCUGAAGAGCCUUGGUUUUUUG

Completion:
[-2.74, -2.95, -3.42, -2.7, -1.79, -4.43, -5.44, 0.88]

For each entry beneath this line, provide reported polymerase ribozyme fitness (log ratio).
1. GACCAAUCUGCCCUCAGAGCUCGAGAACAUCUUCGGAUGCUGCGGAGGCAGGCUUCGGUGGCGCGAUAGCGCCAACGUUUUCAACCUCCAAUGCAUCCCACCACAUGAUGAUGCCUGAAGAGCUUUGGUUUUUUG
2. GACCAAUCUGCCCUCAGAGCUCGAGAACAUCUUCGGAUGCAGAGGCGGCAGGCUUCGGUGGCGCGAUAGCGCCAACGUCCUCAACCUCCAAUGCAUCCCACCACAUGAUGAUGCAUGAAGAGCCUUGGUUUUUUG
3. GACCAAUCUGCCCUCAGAGCUCGAGAACAUCUUCGGAUGCAGAGGAGGCAGGCUUCGGUGGCGCGAUAGCGCCAACGUCCUCAGCCUCCAAUUCAUCCCACCACAUGAUGAUGCCUGAAGAGCCGUGGUUUUUUG
4. GACCAAGCUGCCCUCAGAGCUCGAGAACAUCUUCGGAUGCAGAGGAGGCAGGCUUCGGUGGCGCGAUAGCGCCAACGUCCUCAACCUCCAAUGCAUCCCACCACAUGAUGAUGCCUCAAGAUCCUUGGUUUUUUG

Completion:
[-4.76, -1.52, -2.63, -4.49]

Value sought for every listed variant: polymerase ribozyme fitness (log ratio).
1. GUCCAAUCUGCCCUCAGGGCUCGAGAACAUCCUCGGAUGCAGAGGAGGCAGGCUUCGGUGGCGCGAUAGCGCCAACGUCCUCAACCUCCAAUUCAUCCCACCACAUGAUGAUGCCUGAAGAGCGUUGGUUUUGUG
2. GACCAAUCUGGCCUCAGUGCUCGAGAACAUCUUCGGAUGCAGAGGAGUUAGGCUUCGGUGACGCGAUAGCGCCAACGUCCUCAACCUCCAAUGCAUCCCACCACAUGAUGAUGCCUGAAGAGCCUUGGUUUUUUG

Completion:
-2.99
-3.32
